- Test system: K4 kissing-loop RNA reporter;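 note: bound reporter read as fluorescence of individual clusters on recovered sequencing chips by microscopy, with normalized cluster intensities fitted with a binding model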
- assay.remarks: apparent KD of K4 kissing-loop reporter; higher = weaker reporter binding
- condition.info: Eterna round: R107; input ligand: theophylline 20 uM
Assign T to entries whose apparent KD of K4 kissing-loop reporter meets or exceeds 200 nM; assign F to the rest.

| sequence | tested.on | class.name |
| --- | --- | --- |
| UGACAUUGCUCAGAUACCAGACAAGAGGAUCACCCUUGUGCCAAACGUACAAUAAUAAUUGUCCCUUGGCAGCUGAGCAAUGUCU [TheoBX 14] | K4 kissing-loop RNA reporter | F |
| AUAUUUAUUUAGUCACUUUUAAUAUUAUGUCAGGAUAUCGUAAUUUCGAGAAGGGACUCAUGCUAGUGAUGUUAGCUAAUUCUCA [JR_Nu3_ExcFMNA_Sub023] | K4 kissing-loop RNA reporter | F |
| AAAAUAAGCCAGUGAUGUUGGUAUACAGAUACCAGCGACGAAAGUCGCCCUUGGCAGCUGUGGACGUACAAAAUAAGUACGUCCU | K4 kissing-loop RNA reporter | T |
| GCGAACAUUCGCAGUGAUGUUGCGACGGAAGGAGCGCGUGAAAACGCAGGUAGGUCGCCGACAUACUUAAUUUUACAGUGUUCGC [Arginine A K4 29] | K4 kissing-loop RNA reporter | T |
| AAGGGCUAGGCGGCCGCCACUGGUCGUGUACACAUACGAACCAGUGAUGUUGGUAUUGUAUGCGGCAGGACCGGGCCUAGCCGAA [Exclusion - Tryptophan B (Freestyle 26)] | K4 kissing-loop RNA reporter | T |
| AAACUUGCAGUGAUGUUGCAAGUAGGUGAUACCAGCAUCGAAAGAUGCCCUUGGCAGCACCAAAACAUCACUUAGGUAUCACCAA [(H1)-(H2)-(T1)-(T2)-(H)'-(T)'_Design3] | K4 kissing-loop RNA reporter | T |

---

Measured apparent KD of MS2 coat protein values are reported for all entries that follow.
- System: MS2 coat protein
- assay.remarks: apparent KD of MS2 coat protein; higher = weaker reporter binding
- condition.info: Eterna round: R107; input ligand: arginine 13.2 mM
measure: apparent KD of MS2 coat protein (nM)

| sequence | value.reported |
| --- | --- |
| AAUAACAUGAGGAUCACCCAUGUAAAAGAUACCAGAGUGAUGAUCCUCCCUUGGCAGCUUAAAACGCUAUUGAUUACAAUAGCGA [Mat - Same State Theophlline A - Mod of Eli - D4] | 38.3 |
| AUCCAUAGCCGAAGGAGCGCAGUAGGAUGACAUGAGGAUCACCCAUGUGUGUGAUGUGGAUUGCAGGUAGGUCGCGGAGUGGGUU [Exclusion - Arginine B (Freestyle 7)] | 101 |
| GGUGGGAGCAACGAUACCAGCUACAUGAGGAUCACCCAUGUGGAAUGGGAGUCAACAGCGAGCCCUUGGCAGCGUUAGACCCAAA [Bebeeserdi] | 13.2 |

---

- Test system: MS2 coat protein
- assay.remarks: apparent KD of MS2 coat protein; designed switch direction (-1 OFF switch, 1 ON switch): -1; higher = weaker reporter binding
- condition.info: input ligand: FMN 200 uM
apparent KD of MS2 coat protein values for the sequences below.

| sequence | apparent KD of MS2 coat protein |
| --- | --- |
| AUAAAUCAUGUAGGAUAUGCGUGGAGAAACUAUGCAGAAGGACAUGAGGAUCACCCAUGUGCUUCCGUCUGCGUACAGAUGGUA [Mat - Exclusion NG 1 - Mod of JL - D9] (Eterna round: R96, puzzle: Exclusion NG 1) | 134 nM |
| UGAAUGUCAGAGGAUAUGCACGAUUGGACCGAGGCAGAAGGCUGAACAUGAGGAUCACCCAUGUCAAGAUCUUC [Eternabot (L1) Solution 93] (Eterna round: R97, puzzle: Exclusion 6) | 180 nM |
| UGCUGACGAGGAUAUACAUGAGGAUCACCCAUGUUGGUUCAGCGACGAUAGUCGCAAUGUAGAAGGUGUCAGCA [E3/9-B2] (Eterna round: R97, puzzle: Exclusion 3) | 748 nM |
